testSummary: Example 20: codeine level in urine, Tegaderm-only patches and patches with absorbent material (Table 3)
Format: in vivo, human
appliedConditions: human, urine, po; 30 hours post-dose; 60 mg codeine phosphate orally; read-out: Codeine Level, urine sample
property: concentration at 30 h (ng/mL)
Answers are plain numbers, in ng/mL.

## Task Item under review: `COc1ccc2c3c1O[C@H]1[C@@H](O)C=C[C@H]4[C@@H](C2)N(C)CC[C@@]341` . Reported concentration at 30 h?
## Result 620

Values compiled from patent US5817012A.
